Measured selectivity ratio, listed per entry.
run-description: Selectivity index, ratio of CC50 for human Hep2 cells to EC50 for Respiratory syncytial virus Long infected in human Hep2 cells
Keep the answer to the number alone.

INSERT INTO assay_data (molecule, result_number) VALUES
  ('Cc1ccc(NC(=O)[C@H]2CCCN2S(=O)(=O)c2cccc3cccnc23)c(C)c1', 0.8);

Find the measured selectivity ratio of "Cc1ccc(NC(=O)[C@@H]2CCCN2S(=O)(=O)c2cccc3cccnc23)c(C)c1" and report it. 11.8

Find the measured selectivity ratio of Cc1ccc(NC(=O)C2CCCN2S(=O)(=O)c2cccc3cccnc23)c(C)c1 (racemic) and report it. 6.3
